These measurements were taken from paper PMC12586182.

Quick reference for Percentage inhibition of kinase enzyme activity among some compounds
- Assay system: NEK1 (Homo sapiens, UniProt Q96PY6)
- Construct: purchased Carna Biosciences
- Method notes: Kinase panel profiling at 1 µmol/L (mobility shift assay, Carna)
- Assay type: biochemical
- Setup conditions: 1 µmol/L of BTK inhibitor
Endpoint name: Percentage inhibition of kinase enzyme activity (%)

>>> df
                                smiles_repr                         assay_system  test_result
0  O=C(c1ccc(Oc2ccccc2)cc1Cl)c1c[nH]c2ncnc(N[C@@H]3CC[C@@H](CO)OC3)c12  NEK1 (Homo sapiens, UniProt Q96PY6)        -1.75
1  COc1ccc(F)cc1C(=O)NCc1ccc(-c2nn([C@@H](C)C(F)(F)F)c(N)c2C(N)=O)cc1  NEK1 (Homo sapiens, UniProt Q96PY6)        -2.24
2  CC#CC(=O)N1CCC[C@H]1c1nc(-c2ccc(C(=O)Nc3ccccn3)cc2)c2c(N)nccn12  NEK1 (Homo sapiens, UniProt Q96PY6)        -7.46
3  C=CC(=O)N1CCC[C@@H](n2nc(-c3ccc(Oc4ccccc4)cc3)c3c(N)ncnc32)C1  NEK1 (Homo sapiens, UniProt Q96PY6)         3.73

---

- Test system: CCRF-HSB-2
- Method notes: Cell viability assay (ATPlite)
- Type: cell-based
- Setup conditions: Homo sapiens; CCRF-HSB-2 cell line, 72 hours incubation
pIC50: −log10 of the molar value.
Endpoint name: pIC50

In [3]: df
Out[3]:
                                smiles_repr  assay_system  test_result
0  O=C(c1ccc(Oc2ccccc2)cc1Cl)c1c[nH]c2ncnc(N[C@@H]3CC[C@@H](CO)OC3)c12    CCRF-HSB-2         6.43

---

- Assay system: Haspin (Homo sapiens, UniProt Q8TF76)
- Construct: purchased Carna Biosciences
- Sequence (Q8TF76 whole entry): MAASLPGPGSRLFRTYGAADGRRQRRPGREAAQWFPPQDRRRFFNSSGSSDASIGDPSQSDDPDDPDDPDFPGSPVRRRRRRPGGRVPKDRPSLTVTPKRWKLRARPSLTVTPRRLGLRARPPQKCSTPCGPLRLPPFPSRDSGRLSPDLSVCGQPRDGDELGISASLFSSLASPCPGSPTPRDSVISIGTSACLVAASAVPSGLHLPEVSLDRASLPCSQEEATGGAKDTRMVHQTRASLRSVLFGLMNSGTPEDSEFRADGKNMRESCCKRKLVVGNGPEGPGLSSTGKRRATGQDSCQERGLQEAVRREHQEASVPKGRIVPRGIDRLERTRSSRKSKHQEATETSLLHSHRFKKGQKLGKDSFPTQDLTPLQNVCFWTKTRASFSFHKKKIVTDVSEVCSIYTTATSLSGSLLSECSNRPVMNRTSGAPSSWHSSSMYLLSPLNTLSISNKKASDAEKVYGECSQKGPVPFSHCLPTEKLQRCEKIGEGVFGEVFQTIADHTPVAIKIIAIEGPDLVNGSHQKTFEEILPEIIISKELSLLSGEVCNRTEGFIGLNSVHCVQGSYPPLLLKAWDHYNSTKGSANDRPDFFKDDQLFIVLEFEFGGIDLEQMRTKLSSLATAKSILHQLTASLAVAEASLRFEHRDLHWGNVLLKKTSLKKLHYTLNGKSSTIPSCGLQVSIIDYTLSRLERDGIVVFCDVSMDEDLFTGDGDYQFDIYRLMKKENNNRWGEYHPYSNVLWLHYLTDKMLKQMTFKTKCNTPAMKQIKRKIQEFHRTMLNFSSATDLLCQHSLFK
- Method notes: Kinase panel profiling at 1 µmol/L (mobility shift assay, Carna)
- Format: biochemical
- Setup conditions: 1 µmol/L of BTK inhibitor
This listing pairs compounds with measured Percentage inhibition of kinase enzyme activity.
Endpoint name: Percentage inhibition of kinase enzyme activity (%)

In [3]: df
Out[3]:
                                smiles_repr  endpoint_unit  test_result
0  C=CC(=O)N1CCC[C@@H](n2nc(-c3ccc(Oc4ccccc4)cc3)c3c(N)ncnc32)C1              %         2.53
1  O=C(c1ccc(Oc2ccccc2)cc1Cl)c1c[nH]c2ncnc(N[C@@H]3CC[C@@H](CO)OC3)c12              %        -1.40
2  COc1ccc(F)cc1C(=O)NCc1ccc(-c2nn([C@@H](C)C(F)(F)F)c(N)c2C(N)=O)cc1              %        -3.18
3  CC#CC(=O)N1CCC[C@H]1c1nc(-c2ccc(C(=O)Nc3ccccn3)cc2)c2c(N)nccn12              %         5.31

---

- Assay system: SIK (Homo sapiens)
- Construct: purchased Carna Biosciences
- Sequence (P57059 whole entry): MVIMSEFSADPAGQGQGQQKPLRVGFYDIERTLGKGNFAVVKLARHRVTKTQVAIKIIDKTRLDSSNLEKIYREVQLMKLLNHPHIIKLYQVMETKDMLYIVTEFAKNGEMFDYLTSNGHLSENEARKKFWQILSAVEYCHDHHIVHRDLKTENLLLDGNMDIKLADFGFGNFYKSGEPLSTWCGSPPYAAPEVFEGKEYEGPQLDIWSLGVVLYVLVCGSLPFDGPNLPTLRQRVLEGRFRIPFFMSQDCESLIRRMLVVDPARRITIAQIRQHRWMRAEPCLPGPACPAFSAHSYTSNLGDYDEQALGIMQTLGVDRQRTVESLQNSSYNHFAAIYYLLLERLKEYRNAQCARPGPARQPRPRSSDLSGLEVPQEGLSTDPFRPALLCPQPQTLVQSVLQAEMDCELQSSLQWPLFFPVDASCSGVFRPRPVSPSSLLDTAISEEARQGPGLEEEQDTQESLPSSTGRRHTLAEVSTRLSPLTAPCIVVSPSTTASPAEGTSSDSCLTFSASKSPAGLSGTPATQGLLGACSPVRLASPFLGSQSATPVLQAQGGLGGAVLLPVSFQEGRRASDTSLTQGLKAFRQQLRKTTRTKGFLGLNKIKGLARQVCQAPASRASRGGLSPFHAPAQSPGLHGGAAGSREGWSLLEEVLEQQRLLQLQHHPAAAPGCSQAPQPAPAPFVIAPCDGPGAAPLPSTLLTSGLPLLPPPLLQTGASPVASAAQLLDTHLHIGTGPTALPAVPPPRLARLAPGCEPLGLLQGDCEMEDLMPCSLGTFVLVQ
- Method notes: Kinase panel profiling at 1 µmol/L (mobility shift assay, Carna)
- Format: biochemical
- Setup conditions: 1 µmol/L of BTK inhibitor
Endpoint name: Percentage inhibition of kinase enzyme activity

>>> df
                                smiles_repr  test_result
0  CC#CC(=O)N1CCC[C@H]1c1nc(-c2ccc(C(=O)Nc3ccccn3)cc2)c2c(N)nccn12        0.26%
1  C=CC(=O)N1CCC[C@@H](n2nc(-c3ccc(Oc4ccccc4)cc3)c3c(N)ncnc32)C1        8.13%
2  COc1ccc(F)cc1C(=O)NCc1ccc(-c2nn([C@@H](C)C(F)(F)F)c(N)c2C(N)=O)cc1       -2.28%
3  O=C(c1ccc(Oc2ccccc2)cc1Cl)c1c[nH]c2ncnc(N[C@@H]3CC[C@@H](CO)OC3)c12       96.56%

---

- Assay system: CRIK (Homo sapiens, UniProt O14578)
- Construct: purchased Carna Biosciences
- Sequence (O14578 whole entry): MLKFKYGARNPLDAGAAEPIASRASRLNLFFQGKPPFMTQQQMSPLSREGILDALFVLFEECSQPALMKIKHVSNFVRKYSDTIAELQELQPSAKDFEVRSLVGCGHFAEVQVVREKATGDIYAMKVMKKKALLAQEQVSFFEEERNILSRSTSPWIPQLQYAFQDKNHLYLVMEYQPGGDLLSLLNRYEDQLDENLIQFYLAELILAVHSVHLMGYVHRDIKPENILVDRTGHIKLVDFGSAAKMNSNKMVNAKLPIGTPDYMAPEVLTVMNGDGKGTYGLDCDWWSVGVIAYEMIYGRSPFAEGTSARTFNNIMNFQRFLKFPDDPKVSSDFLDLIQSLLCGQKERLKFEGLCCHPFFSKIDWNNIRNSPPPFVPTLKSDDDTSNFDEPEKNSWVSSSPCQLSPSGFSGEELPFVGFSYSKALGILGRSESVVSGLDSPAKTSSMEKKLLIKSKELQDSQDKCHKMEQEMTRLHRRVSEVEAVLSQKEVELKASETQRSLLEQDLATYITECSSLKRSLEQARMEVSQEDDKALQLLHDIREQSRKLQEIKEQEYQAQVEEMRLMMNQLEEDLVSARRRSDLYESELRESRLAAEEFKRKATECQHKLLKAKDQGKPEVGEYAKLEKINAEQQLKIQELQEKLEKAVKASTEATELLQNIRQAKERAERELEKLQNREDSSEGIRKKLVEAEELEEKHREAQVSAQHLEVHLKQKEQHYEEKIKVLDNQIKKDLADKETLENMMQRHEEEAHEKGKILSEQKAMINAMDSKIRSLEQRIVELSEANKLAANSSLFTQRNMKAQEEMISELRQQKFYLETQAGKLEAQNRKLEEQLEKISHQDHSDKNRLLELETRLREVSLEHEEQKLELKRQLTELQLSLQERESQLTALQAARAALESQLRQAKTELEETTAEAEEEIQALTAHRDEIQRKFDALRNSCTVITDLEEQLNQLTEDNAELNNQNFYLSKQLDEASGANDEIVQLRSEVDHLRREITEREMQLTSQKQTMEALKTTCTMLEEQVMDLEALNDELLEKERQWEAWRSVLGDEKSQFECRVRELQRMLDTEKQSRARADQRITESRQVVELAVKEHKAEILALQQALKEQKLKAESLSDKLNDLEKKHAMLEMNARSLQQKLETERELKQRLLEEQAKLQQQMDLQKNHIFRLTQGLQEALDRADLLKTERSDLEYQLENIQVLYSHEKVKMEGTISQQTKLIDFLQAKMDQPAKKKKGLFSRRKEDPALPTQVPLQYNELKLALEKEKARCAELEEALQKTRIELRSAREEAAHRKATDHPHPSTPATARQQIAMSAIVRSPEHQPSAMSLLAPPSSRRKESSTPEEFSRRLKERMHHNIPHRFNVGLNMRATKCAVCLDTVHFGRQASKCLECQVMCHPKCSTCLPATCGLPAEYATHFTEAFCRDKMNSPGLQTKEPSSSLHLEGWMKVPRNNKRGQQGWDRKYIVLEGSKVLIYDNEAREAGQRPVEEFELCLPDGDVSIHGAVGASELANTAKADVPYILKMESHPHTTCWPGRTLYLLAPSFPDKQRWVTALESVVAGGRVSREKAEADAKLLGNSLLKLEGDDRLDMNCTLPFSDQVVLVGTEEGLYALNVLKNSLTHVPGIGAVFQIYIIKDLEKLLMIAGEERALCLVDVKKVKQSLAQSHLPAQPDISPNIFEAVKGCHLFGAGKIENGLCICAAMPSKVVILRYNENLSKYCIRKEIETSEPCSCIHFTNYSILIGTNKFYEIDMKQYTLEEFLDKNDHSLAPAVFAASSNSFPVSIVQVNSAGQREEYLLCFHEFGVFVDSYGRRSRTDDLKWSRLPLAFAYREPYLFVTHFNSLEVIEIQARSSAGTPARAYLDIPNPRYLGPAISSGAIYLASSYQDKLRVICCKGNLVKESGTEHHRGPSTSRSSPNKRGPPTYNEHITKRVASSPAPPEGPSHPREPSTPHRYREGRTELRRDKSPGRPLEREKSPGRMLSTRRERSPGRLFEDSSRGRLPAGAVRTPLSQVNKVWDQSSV
- Method notes: Kinase panel profiling at 1 µmol/L (mobility shift assay, Carna)
- Type: biochemical
- Setup conditions: 1 µmol/L of BTK inhibitor
Catalogue of compounds with associated Percentage inhibition of kinase enzyme activity
Endpoint name: Percentage inhibition of kinase enzyme activity (%)

In [3]: df
Out[3]:
                                smiles_repr                         assay_system  test_result
0  COc1ccc(F)cc1C(=O)NCc1ccc(-c2nn([C@@H](C)C(F)(F)F)c(N)c2C(N)=O)cc1  CRIK (Homo sapiens, UniProt O14578)        -3.77
1  CC#CC(=O)N1CCC[C@H]1c1nc(-c2ccc(C(=O)Nc3ccccn3)cc2)c2c(N)nccn12  CRIK (Homo sapiens, UniProt O14578)        -5.14
2  O=C(c1ccc(Oc2ccccc2)cc1Cl)c1c[nH]c2ncnc(N[C@@H]3CC[C@@H](CO)OC3)c12  CRIK (Homo sapiens, UniProt O14578)        -5.26
3  C=CC(=O)N1CCC[C@@H](n2nc(-c3ccc(Oc4ccccc4)cc3)c3c(N)ncnc32)C1  CRIK (Homo sapiens, UniProt O14578)        -0.17

---

- Assay system: ZAP70 (Homo sapiens)
- Construct: purchased Carna Biosciences
- Sequence (P43403 whole entry): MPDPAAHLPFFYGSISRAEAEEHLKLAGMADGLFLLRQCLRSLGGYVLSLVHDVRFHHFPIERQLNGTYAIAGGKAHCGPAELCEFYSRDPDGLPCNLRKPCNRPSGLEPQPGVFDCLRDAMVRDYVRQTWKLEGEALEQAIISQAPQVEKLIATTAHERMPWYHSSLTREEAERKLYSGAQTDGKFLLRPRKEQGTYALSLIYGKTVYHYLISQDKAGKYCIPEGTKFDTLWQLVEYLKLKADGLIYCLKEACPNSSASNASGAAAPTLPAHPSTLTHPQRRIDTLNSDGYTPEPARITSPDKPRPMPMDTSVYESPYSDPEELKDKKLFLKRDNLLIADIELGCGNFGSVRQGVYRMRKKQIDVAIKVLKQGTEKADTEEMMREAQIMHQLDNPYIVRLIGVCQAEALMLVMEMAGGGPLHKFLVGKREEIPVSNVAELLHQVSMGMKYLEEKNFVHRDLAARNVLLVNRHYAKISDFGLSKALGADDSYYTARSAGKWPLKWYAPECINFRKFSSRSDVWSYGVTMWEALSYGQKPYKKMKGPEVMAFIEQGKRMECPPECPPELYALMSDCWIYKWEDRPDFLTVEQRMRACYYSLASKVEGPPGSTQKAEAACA
- Method notes: Kinase panel profiling at 1 µmol/L (mobility shift assay, Carna)
- Assay type: biochemical
- Setup conditions: 1 µmol/L of BTK inhibitor
Measured Percentage inhibition of kinase enzyme activity accompanies every entry in the list below.
Endpoint name: Percentage inhibition of kinase enzyme activity (%)

>>> df
                                   compound          assay_system  endpoint_unit  test_result
0  COc1ccc(F)cc1C(=O)NCc1ccc(-c2nn([C@@H](C)C(F)(F)F)c(N)c2C(N)=O)cc1 [pirtobrutinib]  ZAP70 (Homo sapiens)              %        -3.75
1  O=C(c1ccc(Oc2ccccc2)cc1Cl)c1c[nH]c2ncnc(N[C@@H]3CC[C@@H](CO)OC3)c12 [nemtabrutinib]  ZAP70 (Homo sapiens)              %         8.61
2  C=CC(=O)N1CCC[C@@H](n2nc(-c3ccc(Oc4ccccc4)cc3)c3c(N)ncnc32)C1 [ibrutinib]  ZAP70 (Homo sapiens)              %        -4.51
3  CC#CC(=O)N1CCC[C@H]1c1nc(-c2ccc(C(=O)Nc3ccccn3)cc2)c2c(N)nccn12 [acalabrutinib]  ZAP70 (Homo sapiens)              %        -1.53

---

Listed here: items and their measured Percentage inhibition of kinase enzyme activity.
- Assay system: TRKB (Homo sapiens)
- Construct: purchased Carna Biosciences
- Sequence (Q16620 32-822): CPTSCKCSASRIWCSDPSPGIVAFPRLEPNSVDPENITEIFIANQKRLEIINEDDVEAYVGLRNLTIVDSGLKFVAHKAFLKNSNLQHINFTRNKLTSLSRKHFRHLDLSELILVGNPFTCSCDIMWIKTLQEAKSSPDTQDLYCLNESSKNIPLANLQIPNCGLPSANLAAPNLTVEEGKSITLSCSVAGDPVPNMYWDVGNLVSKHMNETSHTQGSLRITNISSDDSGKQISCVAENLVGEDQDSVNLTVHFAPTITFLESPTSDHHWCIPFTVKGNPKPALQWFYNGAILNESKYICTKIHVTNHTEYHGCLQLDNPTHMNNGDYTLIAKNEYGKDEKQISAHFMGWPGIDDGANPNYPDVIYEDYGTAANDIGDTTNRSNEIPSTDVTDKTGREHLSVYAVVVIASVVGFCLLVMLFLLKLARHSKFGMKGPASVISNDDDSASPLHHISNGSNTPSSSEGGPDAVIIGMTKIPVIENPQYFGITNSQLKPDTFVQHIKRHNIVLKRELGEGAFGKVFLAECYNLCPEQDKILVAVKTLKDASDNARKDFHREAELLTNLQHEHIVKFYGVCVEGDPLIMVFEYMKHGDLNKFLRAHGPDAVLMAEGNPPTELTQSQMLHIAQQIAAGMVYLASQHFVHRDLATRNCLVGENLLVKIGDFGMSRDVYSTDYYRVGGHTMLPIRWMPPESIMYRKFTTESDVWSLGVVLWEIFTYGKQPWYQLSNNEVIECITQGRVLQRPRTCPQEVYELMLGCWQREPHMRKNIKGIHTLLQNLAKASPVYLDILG
- Method notes: Kinase panel profiling at 1 µmol/L (mobility shift assay, Carna)
- Type: biochemical
- Setup conditions: 1 µmol/L of BTK inhibitor
Endpoint name: Percentage inhibition of kinase enzyme activity (%)

>>> print(df.to_string())
                                smiles_repr  test_result
0  COc1ccc(F)cc1C(=O)NCc1ccc(-c2nn([C@@H](C)C(F)(F)F)c(N)c2C(N)=O)cc1         4.46
1  C=CC(=O)N1CCC[C@@H](n2nc(-c3ccc(Oc4ccccc4)cc3)c3c(N)ncnc32)C1        25.78
2  O=C(c1ccc(Oc2ccccc2)cc1Cl)c1c[nH]c2ncnc(N[C@@H]3CC[C@@H](CO)OC3)c12       101.64
3  CC#CC(=O)N1CCC[C@H]1c1nc(-c2ccc(C(=O)Nc3ccccn3)cc2)c2c(N)nccn12        13.81

---

- Tested on: MDA-MB-468
- Method notes: Cell viability assay (ATPlite)
- Assay type: cell-based
- Setup conditions: Homo sapiens; MDA-MB-468 cell line, 72 hours incubation
pIC50: −log10 of the molar value.
Endpoint name: pIC50

                                smiles_repr  test_result
0  O=C(c1ccc(Oc2ccccc2)cc1Cl)c1c[nH]c2ncnc(N[C@@H]3CC[C@@H](CO)OC3)c12         5.20

---

Parameter: IC50. Scope: all listed entries.
- Tested on: REC-1
- Method notes: Cell viability assay (ATPlite)
- Assay type: cell-based, human
- Setup conditions: Homo sapiens, Rec1; REC-1 cell line, 72 hours incubation; read-out: IC50
Endpoint name: IC50 (µM)

In [3]: df
Out[3]:
                                   compound  endpoint_name  test_result
0  COc1ccc(F)cc1C(=O)NCc1ccc(-c2nn([C@@H](C)C(F)(F)F)c(N)c2C(N)=O)cc1 [pirtobrutinib]           IC50        0.038
1  CC#CC(=O)N1CCC[C@H]1c1nc(-c2ccc(C(=O)Nc3ccccn3)cc2)c2c(N)nccn12 [acalabrutinib]           IC50        0.021
2  C=CC(=O)N1CCC[C@@H](n2nc(-c3ccc(Oc4ccccc4)cc3)c3c(N)ncnc32)C1 [ibrutinib]           IC50      0.00051
